- assayed target: T1, mfNPR1-mFc (monkey)
- T1 construct: also called dimeric monkey NPR1
- T1 chain: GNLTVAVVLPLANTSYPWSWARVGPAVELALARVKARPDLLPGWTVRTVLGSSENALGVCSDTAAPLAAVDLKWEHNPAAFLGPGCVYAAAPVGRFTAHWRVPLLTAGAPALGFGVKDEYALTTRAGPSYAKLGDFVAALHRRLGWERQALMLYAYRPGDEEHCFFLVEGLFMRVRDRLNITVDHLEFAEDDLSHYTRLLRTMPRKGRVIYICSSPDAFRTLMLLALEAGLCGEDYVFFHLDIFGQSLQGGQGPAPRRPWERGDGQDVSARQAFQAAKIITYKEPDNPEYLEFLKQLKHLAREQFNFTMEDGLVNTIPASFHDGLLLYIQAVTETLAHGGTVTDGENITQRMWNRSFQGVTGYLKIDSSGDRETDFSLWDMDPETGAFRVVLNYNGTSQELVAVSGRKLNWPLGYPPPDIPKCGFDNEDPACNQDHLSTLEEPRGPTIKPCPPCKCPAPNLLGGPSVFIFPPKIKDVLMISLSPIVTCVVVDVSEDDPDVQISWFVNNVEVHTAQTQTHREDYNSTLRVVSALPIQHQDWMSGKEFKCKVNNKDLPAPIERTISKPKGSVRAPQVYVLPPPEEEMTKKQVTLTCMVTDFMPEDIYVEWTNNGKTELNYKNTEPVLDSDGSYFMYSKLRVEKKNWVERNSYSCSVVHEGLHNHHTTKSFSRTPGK
- measurement notes: SPR, mAb captured, 25C
- Method: Equilibrium dissociation constant (KD) for different NPR1 reagents binding to purified anti-NPR1 monoclonal antibodies (mAbs) were determined using a real-time surface plasmon resonance based Biacore 4000 biosensor. All binding studies were performed in 10 mM HEPES, 150 mM NaCl, 3 mM EDTA, and 0.05% v/v Surfactant Tween-20, pH 7.4 (HBS-ET) running buffer at 25° C. and 37° C. […]
readout kind: 100 nM Ag Bound (RU)

>>> test_value("mAb22035 (antibody, human IgG4, V domains shown) VH: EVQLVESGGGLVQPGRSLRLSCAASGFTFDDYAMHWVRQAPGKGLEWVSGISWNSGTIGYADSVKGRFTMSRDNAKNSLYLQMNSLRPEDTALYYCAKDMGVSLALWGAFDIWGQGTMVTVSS VL: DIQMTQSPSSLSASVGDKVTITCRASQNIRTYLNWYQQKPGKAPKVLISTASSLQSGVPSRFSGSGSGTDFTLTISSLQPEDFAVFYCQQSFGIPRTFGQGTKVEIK")
231

Cited source for all entries: patent US20240309103A1
